Target: BRD4(BD1) (Homo sapiens (Human), UniProt O60885)
Assay: In vitro bromodomain inhibition assay (AlphaLISA)
Details: His-tagged BRD4 BD1 200 nM, biotinylated H4-tetraacetyl peptide 200 nM
Overview of reported IC50 across a group of molecules:
Return type: number; implicit unit nM.

# example entries with known answers
| structure-notation | readout-units | IC50 |
| --- | --- | --- |
| Cc1cc(-c2ccc3nc(C)n(CCOC(F)(F)F)c3c2)cn(C)c1=O | nM | 190 |
| Cc1cc(-c2ccc3nc(C4CC4)n(CCOC(F)(F)F)c3c2)cn(C)c1=O | nM | 190 |
| COCCn1c(C2CCOCC2)nc2ccc(-c3cc(C)c(=O)n(C)c3)cc21 | nM | 220 |
| COC[C@@H](C)n1cnc2ccc(-c3cc(C)c(=O)n(C)c3)cc21 | nM | 330 |
| COC[C@@H](C)n1c(C)nc2ccc(-c3cc(C)c(=O)n(C)c3)cc21 | nM | 98 |

Request: Which measured IC50 value corresponds to "COCCn1c(C)nc2ccc(-c3cc(C)c(=O)n(C)c3)cc21" ?
Result: 210

Request: Could you do the same for "CC(=O)N1CCC(c2nc3ccc(-c4cc(C)c(=O)n(C)c4)cc3n2CCOC(F)(F)F)CC1" , please?
Result: 130

Request: Same lookup for "COC[C@@H](C)n1c(C2CCOCC2)nc2ccc(-c3cc(C)c(=O)n(C)c3)cc21" , please.
Result: 99

* * *

Target: BRD4(BD1) (Homo sapiens (Human), UniProt O60885)
Experiment: In vitro bromodomain inhibition assay (AlphaLISA)
Conditions: His-tagged BRD4 BD1 200 nM, biotinylated H4-tetraacetyl peptide 200 nM
The following compounds are shown together with reported pIC50 values.
Give only the number. pIC50 is defined as minus log10 of concentration in molar units.

Below, each entry is followed by its recorded pIC50 result.
| structure-notation | pIC50 |
| --- | --- |
| Cn1cc(-c2ccc3nc(C4CC4)n(CCOC(F)(F)F)c3c2)cc(C(F)(F)F)c1=O | 6.09 |
| Cc1cc(-c2ccc3nc(C4CCC4)n(CCOC(F)(F)F)c3c2)cn(C)c1=O | 7.04 |
| Cc1cc(-c2ccc3nc(C4CCOCC4)n(CCOC(F)(F)F)c3c2)cn(C)c1=O | 6.85 |
| COC[C@@H](C)n1c(C2CC2)nc2ccc(-c3cc(C)c(=O)n(C)c3)cc21 | 7.00 |
| COCCn1c(C2CC2)nc2ccc(-c3cc(C)c(=O)n(C)c3)cc21 | 6.55 |

Request: Item under review: "Cc1cc(-c2ccc3ncn(CCOC(F)(F)F)c3c2)cn(C)c1=O" . Reported pIC50?
Result: 6.51

* * *

Test system: human C-Myc transcription in MV-4-11 cells
Assay: Transcription of human C-Myc in human leukemic MV-4-11 cells (QuantiGene 2.0)
Assay type: cell-based
Settings: inhibition of C-Myc mRNA, 4 hours treatment, read-out: IC50 MV-4-11 Cell
measured-property: IC50 (nM)
Dear colleague, please return just the value in nM, with no unit written.

# example entries with known answers
| compound | experimental-result |
| --- | --- |
| Cc1cc(-c2ccc3nc(C4CCOC4)n(CCOC(F)(F)F)c3c2)cn(C)c1=O (single isomer, unassigned) [Compound 29b] | 77 |
| COC(C)Cn1c(C)nc2ccc(-c3cc(C)c(=O)n(C)c3)cc21 (centres unmarked) [Compound 21b] | 590 |

Request: Give recorded IC50 with human C-Myc transcription in MV-4-11 cells for the following compound: Cc1cc(-c2ccc3nc(C4CCOCC4)n(CC(C)C(F)(F)F)c3c2)cn(C)c1=O (centres unmarked) [Compound 46b]
Result: 250

* * *

Test system: human C-Myc transcription in MV-4-11 cells
Experiment: Transcription of human C-Myc in human leukemic MV-4-11 cells (QuantiGene 2.0)
Type: cell-based
Details: inhibition of C-Myc mRNA, 4 hours treatment, read-out: IC50 MV-4-11 Cell
Hi! Could you tag entries with IC50 below 200 nM as MET, and those at or above as NOT MET? Much appreciated.

Here's what some known entries look like.
| molecule | classification |
| --- | --- |
| COC(C)Cn1cnc2ccc(-c3cc(C)c(=O)n(C)c3)cc21 (centres unmarked) [Compound 22b] | NOT MET |
| COC1CC(c2nc3ccc(-c4cc(C)c(=O)n(C)c4)cc3n2CCOC(C)C)C1 (centres unmarked) [Compound 65] | MET |
| COC1CC(c2nc3ccc(-c4cc(C)c(=O)n(C)c4)cc3n2CCOC(C)C)C1 (centres unmarked) [Compound 64] | MET |
| COC(C)Cn1c(C2CCOCC2)nc2ccc(-c3cc(C)c(=O)n(C)c3)cc21 (single isomer, unassigned) [Compound 35a] | MET |
| COC(C)Cn1c(C2CC2)nc2ccc(-c3cc(C)c(=O)n(C)c3)cc21 (single isomer, unassigned) [Compound 23a] | NOT MET |
| COC(C)Cn1c(C2CCOCC2)nc2ccc(-c3cc(C)c(=O)n(C)c3)cc21 (single isomer, unassigned) [Compound 35b] | MET |

Request: Here's an entry: COC(C)Cn1c(C2CC2)nc2ccc(-c3cc(C)c(=O)n(C)c3)cc21 (single isomer, unassigned) [Compound 23b] . Is its IC50 below 200 nM?
Result: NOT MET

Request: What do you get for Cc1cc(-c2ccc3nc(C4CCOC4)n(CCOC(F)(F)F)c3c2)cn(C)c1=O (single isomer, unassigned) [Compound 29a] ?
Result: NOT MET
